B1: tRNA (parent)
chain: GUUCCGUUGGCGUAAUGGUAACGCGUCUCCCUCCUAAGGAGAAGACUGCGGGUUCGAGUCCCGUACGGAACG

variants of: B1; test: yeast fitness, log relative to wild type (ln ratio); higher = fitter; tRNA-Arg(CCU), competitive growth, 37 C, 1 M NaCl
# key: entry, value: yeast fitness (ln)
measure: yeast fitness (ln)

>  <mutationName>
G1A U2G G6U A43C C66A A70G C71U

>  <measure>
yeast fitness (ln)

>  <experimentalValue>
-0.301

$$$$
>  <mutationName>
G1A U2C G6U C66U A69G A70G C71U

>  <measure>
yeast fitness (ln)

>  <experimentalValue>
-0.221

$$$$
>  <mutationName>
G1A C27U A43C C46U A69G A70U

>  <measure>
yeast fitness (ln)

>  <experimentalValue>
-0.324

$$$$
>  <mutationName>
U2G A43C C66U A70U

>  <measure>
yeast fitness (ln)

>  <experimentalValue>
-0.268

$$$$
>  <mutationName>
U2G G6A C27U A70G

>  <measure>
yeast fitness (ln)

>  <experimentalValue>
-0.112

$$$$
>  <mutationName>
U2C A43C C66A A69G A70G C71U

>  <measure>
yeast fitness (ln)

>  <experimentalValue>
-0.168

$$$$
>  <mutationName>
U2C C46U C66U A70U C71U

>  <measure>
yeast fitness (ln)

>  <experimentalValue>
-0.155

$$$$
>  <mutationName>
G1A U2G C46U A70U C71U

>  <measure>
yeast fitness (ln)

>  <experimentalValue>
0.00364

$$$$
>  <mutationName>
U2C G6U C27U C46U C66A A70G

>  <measure>
yeast fitness (ln)

>  <experimentalValue>
-0.0216

$$$$
>  <mutationName>
G1A G6U C27U A43C C46U A69G A70U C71U

>  <measure>
yeast fitness (ln)

>  <experimentalValue>
-0.475

$$$$
>  <mutationName>
G6U C27U C66A A70G

>  <measure>
yeast fitness (ln)

>  <experimentalValue>
-0.0711

$$$$
>  <mutationName>
U2C G6U A43C A70U C71U

>  <measure>
yeast fitness (ln)

>  <experimentalValue>
-0.198

$$$$
>  <mutationName>
U2C G6U C66U A69G A70U C71U

>  <measure>
yeast fitness (ln)

>  <experimentalValue>
-0.468

$$$$
>  <mutationName>
G1A U2G A43C C66U C71U

>  <measure>
yeast fitness (ln)

>  <experimentalValue>
-0.257

$$$$
>  <mutationName>
G1A U2G A43C C46U C66A A70G

>  <measure>
yeast fitness (ln)

>  <experimentalValue>
-0.26

$$$$
>  <mutationName>
G1A U2C G6U A43C C46U A70U

>  <measure>
yeast fitness (ln)

>  <experimentalValue>
-0.0463

$$$$
>  <mutationName>
G1A U2C G6U C46U C66A A70G C71U

>  <measure>
yeast fitness (ln)

>  <experimentalValue>
-0.0251

$$$$
>  <mutationName>
G1A U2C C46U C66A A70U C71U

>  <measure>
yeast fitness (ln)

>  <experimentalValue>
-0.0833

$$$$
>  <mutationName>
G1A U2G C27U C66A A69G A70G C71U

>  <measure>
yeast fitness (ln)

>  <experimentalValue>
-0.265

$$$$
>  <mutationName>
C46U C66U A70U

>  <measure>
yeast fitness (ln)

>  <experimentalValue>
-0.103

$$$$
>  <mutationName>
G1A U2G G6A A43C C46U C66U A69G A70U C71U

>  <measure>
yeast fitness (ln)

>  <experimentalValue>
-0.425

$$$$
>  <mutationName>
G1A U2G G6U C27U A43C C46U C66U

>  <measure>
yeast fitness (ln)

>  <experimentalValue>
-0.434

$$$$
